Origin of measurements: the supplement of paper PMC11061612

- Test system: YT (Other Blood Carcinomas)
- Measurement Description: combination Emax (second highest fraction inhibited in the dose matrix, 72 h); higher = more inhibition; extreme values may be limits of the assay
combination Emax overview

{"Compound": "CCc1c2c(nc3ccc(O)cc13)-c1cc3c(c(=O)n1C2)COC(=O)[C@]3(O)CC [SN-38] + O=C(c1cc(Cc2n[nH]c(=O)c3ccccc23)ccc1F)N1CCN(C(=O)C2CC2)CC1 [Olaparib] (first compound max 0.3 µM, 7x7, partner max 10 µM)", "combination Emax": 0.895}
{"Compound": "O=C(c1cc(Cc2n[nH]c(=O)c3ccccc23)ccc1F)N1CCN(C(=O)C2CC2)CC1 [Olaparib] + COc1nnc2ccc(N3CCC(c4ccc(OCCN5CCN(C)C(=O)[C@H]5C)cc4)CC3)nn12 [AZD5153] (first compound max 10 µM, 7x7, partner max 1 µM)", "combination Emax": 0.53}
{"Compound": "Cc1c2c(nn1C)CSCc1cc(n(C)n1)CSc1cc(c3ccccc3c1)OCCCc1c(C(=O)O)n(C)c3c-2c(Cl)ccc13 [AZD5991] + CS(=O)(=O)CCNCc1ccc(-c2ccc3ncnc(Nc4ccc(OCc5cccc(F)c5)c(Cl)c4)c3c2)o1 [Lapatinib] (first compound max 1 µM, 7x7, partner max 10 µM)", "combination Emax": 1}
{"Compound": "CC1(C)CCC(CN2CCN(c3ccc(C(=O)NS(=O)(=O)c4ccc(NCC5CCOCC5)c([N+](=O)[O-])c4)c(Oc4cnc5[nH]ccc5c4)c3)CC2)=C(c2ccc(Cl)cc2)C1 [Venetoclax] + C[C@@H]1COCCN1C2=NC(=NC(=C2)C3(CC3)[S@](=N)(=O)C)C4=C5C=CNC5=NC=C4 [AZD6738] (first compound max 1 µM, 7x7, partner max 10 µM)", "combination Emax": 0.852}
